Listed next: entries and their corresponding IC50.
Biological target: hTSHR (Homo sapiens)
Construct: expressed in transfected cells
Assay: hTSHR TR-FRET cAMP Assay (inhibition of M22-stimulated cAMP production)
Type: cell-based
Conditions: Expi293F Inducible cells stably expressing hTSHR; cAMP HTRF; stimulated with EC80 of anti-TSHR antibody M22; 15 min compound preincubation, 30 min at 37° C.; read-out: Activity (IC50 bins)

C[C@@H](c1cccc(Cl)c1)N1C(=O)COc2cc(NC(=O)NC(C)(C)C)ccc21 = < 100 nM
C[C@H]1Oc2cc(NC(=O)NC3(C)CCCC3)ccc2N([C@@H](C)c2cccc(OC(F)(F)F)n2)C1=O = < 100 nM
C[C@H]1Oc2cc(NC(=O)NC(C)(C)CCO)ccc2N(Cc2ccccc2)C1=O = 100 to 1000 nM

Prompt line: Recorded IC50 of C[C@H]1Oc2cc(NC(=O)NC(C)(C)C)ccc2N(Cc2cc(C(F)(F)F)ccc2C#N)C1=O , please.
Response line: > 1000 nM

Prompt line: Recorded IC50 of C[C@@H](c1cccc(OC(F)(F)F)c1)n1c(=O)cnc2cc(NC(=O)NC3CCC(F)(F)CC3)ccc21 , please.
Response line: 100 to 1000 nM

Prompt line: Recorded IC50 of CC(C)(CNC(=O)Nc1ccc2c(c1)ncc(=O)n2Cc1cccc(OC(F)(F)F)c1)C(F)(F)F , please.
Response line: 100 to 1000 nM

Prompt line: Recorded IC50 of C[C@H]1Oc2cc(NC(=O)NC(C)(C)C)ccc2N([C@@H](C)c2cncc(C(F)(F)F)n2)C1=O (single isomer, unassigned) , please.
Response line: > 1000 nM

Prompt line: Recorded IC50 of CC(C)C1Cc2cc(NC(=O)NC(C)(C)C)ccc2N(Cc2ccccc2)C1=O (stereo not shown) , please.
Response line: > 1000 nM

Prompt line: Recorded IC50 of C[C@H]1Oc2cc(NC(=O)NC(C)(C)C)ccc2N([C@@H](C)c2cccc(C(F)F)c2)C1=O , please.
Response line: < 100 nM

Prompt line: Recorded IC50 of C[C@H](c1nccc(C(F)(F)F)n1)N1C(=O)[C@@H](C)Oc2cc(NC(=O)NC(C)(C)C)ccc21 , please.
Response line: 100 to 1000 nM

Prompt line: Recorded IC50 of CC(C)(C)NC(=O)Nc1ccc2c(c1)CC(C(F)(F)F)C(=O)N2Cc1ccccc1 (stereo not shown) , please.
Response line: > 1000 nM

Prompt line: Recorded IC50 of CC(O)c1cccc([C@H](C)n2c(=O)cnc3cc(NC(=O)NC(C)(C)C)ccc32)c1 (stereo partly shown) , please.
Response line: > 1000 nM

Prompt line: Recorded IC50 of Cc1cccc(CN2C(=O)CCc3cc(NC(=O)NC(C)(C)C)ccc32)c1F , please.
Response line: < 100 nM

Prompt line: Recorded IC50 of C[C@@H](c1cccc(OCC(F)(F)F)c1)n1c(=O)cnc2cc(NC(=O)NC(C)(C)C)ccc21 , please.
Response line: > 1000 nM

Prompt line: Recorded IC50 of CN1Cc2cc(NC(=O)NC(C)(C)C)ccc2N(Cc2cccc(Cl)c2)C1=O , please.
Response line: < 100 nM

Prompt line: Recorded IC50 of CC(C)(C)NC(=O)Nc1ccc2c(c1)CCC(=O)N2Cc1cc(Cl)cc(Cl)c1 , please.
Response line: < 100 nM

====

Listed next: entries and their corresponding pIC50.
Target: hTSHR (Homo sapiens)
Construct: expressed in transfected cells
Test: hTSHR TR-FRET cAMP Assay (inhibition of M22-stimulated cAMP production)
Format: cell-based
Settings: Expi293F Inducible cells stably expressing hTSHR; cAMP HTRF; stimulated with EC80 of anti-TSHR antibody M22; 15 min compound preincubation, 30 min at 37° C.; read-out: Activity (IC50 bins)
Protocol: Assays were performed using Expi293F Inducible cells (Invitrogen) stably expressing hTSHR via a pcZeo TetO DNA plasmid. […] Assay-ready aliquots were prepared by harvesting each cell type separately 24-hours post-induction. Cells were pelleted at 4° C., resuspended in Expi293 Expression media+10% DMSO, aliquoted, and kept frozen at −80° C. until ready for use. […]
pIC50: −log10 of the molar value.

C[C@@H](c1cccc(C2CC2)n1)n1c(=O)cnc2cc(NC(=O)NC(C)(C)C)ccc21 = 6.00 to 7.00
CC(C)(C)OC(=O)Nc1ccc2c(c1)CCC(=O)N2Cc1ccccc1 = > 7.00

Prompt line: Recorded pIC50 of CC(C)(CCO)NC(=O)Nc1ccc2c(c1)CCC(=O)N2Cc1ccccc1 , please.
Response line: 6.00 to 7.00

Prompt line: Recorded pIC50 of CC(C)(C)NC(=O)Nc1ccc2c(c1)CCC(=O)N2Cc1ccccc1F , please.
Response line: > 7.00

Prompt line: Recorded pIC50 of Cc1cccc(CN2C(=O)[C@@H](C)Oc3cc(NC(=O)NC(C)(C)C)ccc32)c1 , please.
Response line: > 7.00

Prompt line: Recorded pIC50 of C[C@@H](c1cccc(C(F)(F)F)n1)n1c(=O)cnc2cc(NC(=O)CCC(C)(C)C)ccc21 , please.
Response line: 6.00 to 7.00

Prompt line: Recorded pIC50 of C[C@H]1Oc2c(cc(C(F)(F)F)c(NC(=O)NC(C)(C)C)c2F)N(Cc2ccccc2)C1=O , please.
Response line: 6.00 to 7.00

Prompt line: Recorded pIC50 of C[C@H]1Oc2nc(NC(=O)NC(C)(C)C)ccc2N(Cc2ccccc2)C1=O , please.
Response line: 6.00 to 7.00

====

Listed next: entries and their corresponding pIC50.
Target: hTSHR (Homo sapiens, UniProt P16473)
Construct: expressed in transfected cells
Sequence (P16473 21-764): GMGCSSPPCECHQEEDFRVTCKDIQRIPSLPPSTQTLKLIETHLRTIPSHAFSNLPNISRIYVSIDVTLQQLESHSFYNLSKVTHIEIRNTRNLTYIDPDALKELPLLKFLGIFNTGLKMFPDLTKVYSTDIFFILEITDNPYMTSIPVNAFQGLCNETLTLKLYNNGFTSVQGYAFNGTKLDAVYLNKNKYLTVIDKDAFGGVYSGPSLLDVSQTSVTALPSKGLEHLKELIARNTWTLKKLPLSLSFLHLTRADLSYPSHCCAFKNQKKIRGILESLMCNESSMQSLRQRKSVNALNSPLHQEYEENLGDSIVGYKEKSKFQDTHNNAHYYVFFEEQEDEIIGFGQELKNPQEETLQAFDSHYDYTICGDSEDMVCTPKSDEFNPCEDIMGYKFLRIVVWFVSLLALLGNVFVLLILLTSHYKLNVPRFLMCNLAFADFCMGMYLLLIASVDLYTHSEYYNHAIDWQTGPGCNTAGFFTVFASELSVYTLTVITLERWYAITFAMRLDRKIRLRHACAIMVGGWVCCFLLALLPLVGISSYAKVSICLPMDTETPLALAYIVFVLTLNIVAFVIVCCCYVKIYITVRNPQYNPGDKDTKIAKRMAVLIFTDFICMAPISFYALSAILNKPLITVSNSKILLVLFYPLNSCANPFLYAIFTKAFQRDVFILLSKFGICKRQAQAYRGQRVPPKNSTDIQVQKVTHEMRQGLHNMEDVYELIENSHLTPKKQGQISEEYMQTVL
Test: hTSHR TR-FRET cAMP Assay (inhibition of M22-stimulated cAMP production)
Type: cell-based
Conditions: Expi293F Inducible cells stably expressing hTSHR; cAMP HTRF; stimulated with EC80 of anti-TSHR antibody M22; 15 min compound preincubation, 30 min at 37° C.; read-out: Activity (IC50 bins)
pIC50: −log10 of the molar value.

CC(C)(C)NC(=O)Nc1ccc2c(c1)ncc(=O)n2Cc1cccc(Cl)c1 = 6.00 to 7.00
C[C@H]1Oc2cc(NC(=O)NC3(C)CCCC3)ccc2N([C@@H](C)c2ccccc2)C1=O = > 7.00
C[C@H]1Oc2cc(NC(=O)NC3(C(F)(F)F)CCC3)ccc2N([C@@H](C)c2ccccc2)C1=O = > 7.00

We now examine a further compound.
Prompt line: Recorded pIC50 of CC(c1cc(C(O)C(F)(F)F)ccc1F)n1c(=O)cnc2cc(NC(=O)NC(C)(C)C)ccc21 (stereo not shown) , please.
Response line: < 6.00

====

Listed next: entries and their corresponding pIC50.
Target: hTSHR (Homo sapiens, UniProt P16473)
Construct: expressed in transfected cells
Experiment: hTSHR TR-FRET cAMP Assay (inhibition of M22-stimulated cAMP production)
Assay type: cell-based
Settings: Expi293F Inducible cells stably expressing hTSHR; cAMP HTRF; stimulated with EC80 of anti-TSHR antibody M22; 15 min compound preincubation, 30 min at 37° C.; read-out: Activity (IC50 bins)
pIC50: −log10 of the molar value.

Below, 2 compounds whose answers are already recorded.
CC1Cc2cc(NC(=O)NC(C)(C)C)ccc2N(Cc2ccccc2)C1=O (centres unmarked) = > 7.00
C[C@@H]1Cc2cc(NC(=O)NC(C)(C)C)c(F)cc2N(Cc2ccccc2)C1=O (single isomer, unassigned) = < 6.00

Prompt line: Recorded pIC50 of C[C@@H](c1cccc(C(F)(F)F)c1)N1C(=O)CCc2nc(NC(=O)NC(C)(C)C)ccc21 , please.
Response line: 6.00 to 7.00

Prompt line: Recorded pIC50 of CC(C)(C)NC(=O)Nc1ccc2c(c1)OCC(=O)N2Cc1cccc(OC(F)(F)F)c1 , please.
Response line: 6.00 to 7.00

Prompt line: Recorded pIC50 of Cc1ccc(Cl)cc1[C@H](C)n1c(=O)cnc2cc(NC(=O)NC(C)(C)C)ccc21 , please.
Response line: 6.00 to 7.00

Prompt line: Recorded pIC50 of CC(C)(C#N)CNC(=O)Nc1ccc2c(c1)ncc(=O)n2Cc1cccc(OC(F)(F)F)c1 , please.
Response line: < 6.00

Prompt line: Recorded pIC50 of C[C@@H](c1cccc(Cl)c1)N1C(=O)CCc2nc(NC(=O)NC(C)(C)C)ccc21 , please.
Response line: < 6.00

Prompt line: Recorded pIC50 of CC(C)(C)NC(=O)Nc1ccc2c(c1)CCC(=O)N2Cc1cccc(C(F)(F)F)c1 , please.
Response line: > 7.00

====

Molecular target: hTSHR (Homo sapiens)
Construct: expressed in transfected cells
Assay: hTSHR TR-FRET cAMP Assay (inhibition of M22-stimulated cAMP production)
Type: cell-based
Conditions: Expi293F Inducible cells stably expressing hTSHR; cAMP HTRF; stimulated with EC80 of anti-TSHR antibody M22; 15 min compound preincubation, 30 min at 37° C.; read-out: Activity (IC50 bins)
pIC50: −log10 of the molar value.
Assay Endpoint: pIC50

Below, 3 compounds whose answers are already recorded.
CC(C)(C)NC(=O)Nc1ccc2c(c1)OCC(=O)N2Cc1cccc(C(F)F)c1 [Example 71] = 6.00 to 7.00
C[C@@H](c1cccc(C2CC2)c1)n1c(=O)cnc2cc(NC(=O)NC(C)(C)C)ccc21 [Example 134] = 6.00 to 7.00
CC(C)(C)NC(=O)Nc1ccc2c(c1)CC(CO)C(=O)N2Cc1ccccc1 (stereo not shown) [Example 51] = < 6.00

Prompt line: Recorded pIC50 of C[C@H]1Oc2cc(NC(=O)NC(C)(C)C)c(F)c(F)c2N(Cc2cccc(C(F)F)c2)C1=O [Example 340] , please.
Response line: 6.00 to 7.00
